So I've got a bunch of compounds here, and I need their P.D.I. values.
# assay_details: Size distribution, polydispersity and Z-potential of LNPs by dynamic light scattering (Malvern Zetasizer)
# Format: physicochemical
# experimental_context: LNPs, standard formulation 50:10:38.5:1.5; DLS
Answers are plain numbers.

Below, each entry is followed by its recorded P.D.I. result.
compound="CCCCCCCCC(CCCCCC)C(=O)NC(CCSCCC(=O)OCC(CC)CCCC)C(=O)NCCCN1CCOCC1 (centres unmarked)" measurement=0.11
compound="CCCCCCCC/C=C\\CCCCCCCC(=O)NC(CCSCCC(=O)OCCCCCCCCCCCC)C(=O)NC1CCN(C)CC1 (centres unmarked)" measurement=0.25
compound="CCCCCCCCCCCCOC(=O)CCSCCC(NC(=O)C(CCCCCC)CCCCCCCC)C(=O)NCCN(CC)CC (centres unmarked)" measurement=0.15
compound="CCCCCCCCCCCCCOC(=O)CCSCC(CC(=O)NCCCn1ccnc1)C(=O)OC(CCCCCCCC)CCCCCCCC (centres unmarked)" measurement=0.09
compound="CCCCCCCCCCCCCCCCCCCCCCOC(=O)CCSCC(CC(=O)NCCCN1CCOCC1)C(=O)OC(CCCCCCCC)CCCCCCCC (centres unmarked)" measurement=0.27
compound="CCCCCCCC#CCOC(=O)CCSCCC(NC(=O)C(CCCCCC)CCCCCCCC)C(=O)NC1CCN(C)CC1 (centres unmarked)" measurement=0.14
compound="CCCCCCCCCCCCOC(=O)CCSCCC(C(=O)NCCCn1ccnc1)C(=O)OC(CCCCCCCC)CCCCCCCC (centres unmarked)" measurement=0.16
compound="CCCCCCCCCCCCOC(=O)CCSCC(CC(=O)NC1CCN(C)CC1)C(=O)OCC(CCCCCC)CCCCCCCC (centres unmarked)" measurement=0.2

Batch lookup, P.D.I. per entry.
1. CCCCCCCC/C=C\CCCCCCCC(=O)NC(CCSCCC(=O)OCCCCCCCC(C)C)C(=O)NCCCN(CCO)CCO (centres unmarked)
2. CCCCCCCCC(CCCCCC)C(=O)NC(CCSCCC(=O)OCCCCCC(C)C)C(=O)NC1CCN(C)CC1 (centres unmarked)
3. CCCCCCCC#CCOC(=O)CCSCCC(NC(=O)C(CCCCCC)CCCCCCCC)C(=O)NCCN(CC)CC (centres unmarked)
4. CCCCCCCCC(CCCCCC)COC(=O)C(CSCCC(=O)OCCCCCCCC(C)C)CC(=O)NC1CCN(C)CC1 (centres unmarked)
5. CCCCCCCC/C=C\CCCCCCCC(=O)NC(CCSCCC(=O)OCCCCCCCCCCCCC)C(=O)NC1CCN(C)CC1 (centres unmarked)
6. CCCCCCCCCCCCC(CCCCCCCCCC)COC(=O)CCSCC(CC(=O)NCCCN1CCOCC1)C(=O)OC(CCCCCCCC)CCCCCCCC (centres unmarked)

OUT:
[0.18, 0.14, 0.16, 0.16, 0.17, 0.22]

Batch lookup, P.D.I. per entry.
1. CCCCCCCCCCCCCCCCOC(=O)CCSCCC(NC(=O)C(CCCCCC)CCCCCCCC)C(=O)NCCN(CC)CC (centres unmarked)
2. CCCCCCCCCCCCCCOC(=O)CCSCC(CC(=O)NCCCn1ccnc1)C(=O)OC(CCCCCCCC)CCCCCCCC (centres unmarked)
3. CCCCCCCCC(CCCCCC)COC(=O)C(CSCCC(=O)OCCCCCC(C)C)CC(=O)NC1CCN(C)CC1 (centres unmarked)

OUT:
1. 0.2
2. 0.15
3. 0.15

Batch lookup, P.D.I. per entry.
1. CCCCCCCC/C=C\CCCCCCCCOC(=O)CCSCCC(C(=O)NC1CCN(C)CC1)C(=O)OC(CCCCCCCC)CCCCCCCC (centres unmarked)
2. CCCCCCCCC(CCCCCCCC)OC(=O)C(CSCCC(=O)OCCCCCCCC(C)C)CC(=O)NCCCn1ccnc1 (centres unmarked)
3. CCCCCCCCCCCCCCCCCCOC(=O)CCSCCC(NC(=O)CCCCCCCCCCCCCCCCC)C(=O)NCCCN1CCOCC1 (centres unmarked)
4. CCCCCCCCCCCCCOC(=O)CCSCCC(C(=O)NCCCN1CCOCC1)C(=O)OCC(CCCCCC)CCCCCCCC (centres unmarked)
5. CCCCCCCCCCCCCCCCOC(=O)CCSCC(CC(=O)NC1CCN(C)CC1)C(=O)OCC(CCCCCC)CCCCCCCC (centres unmarked)
6. CCCCCCCCC(CCCCCC)COC(=O)C(CCSCCC(=O)OCCCCCCCC(C)C)C(=O)NCCCN1CCOCC1 (centres unmarked)

OUT:
0.13
0.13
0.25
0.24
0.19
0.17
